# Tested on: UACC-62 (Melanoma)
# measurement-notes: combination Emax (second highest fraction inhibited in the dose matrix, 72 h); higher = more inhibition; extreme values may be limits of the assay
Field: combination Emax. Provide a value for each of the compounds that follow.
API doc: respond with a numeric literal and nothing else, no unit.

Query string: Return reported combination Emax. Input compound: Cc1c2c(nn1C)CSCc1cc(n(C)n1)CSc1cc(c3ccccc3c1)OCCCc1c(C(=O)O)n(C)c3c-2c(Cl)ccc13 [AZD5991] + C[C@@H]1COCCN1C2=NC(=NC(=C2)C3(CC3)[S@](=N)(=O)C)C4=C5C=CNC5=NC=C4 [AZD6738] (first compound max 1 µM, 7x7, partner max 10 µM)
Result string: 0.939

Query string: Return reported combination Emax. Input compound: C[C@@H](Oc1cc(-c2cnn(C3CCNCC3)c2)cnc1N)c1c(Cl)ccc(F)c1Cl [Crizotinib] + Cn1cnc2c(F)c(Nc3ccc(Br)cc3Cl)c(C(=O)NOCCO)cc21 [Selumetinib] (first compound max 10 µM, 7x7, partner max 10 µM)
Result string: 0.782

Query string: Return reported combination Emax. Input compound: Cc1nc(Nc2ncc(C(=O)Nc3c(C)cccc3Cl)s2)cc(N2CCN(CCO)CC2)n1 [Dasatinib] + CC(=O)Nc1cccc(-n2c(=O)n(C3CC3)c(=O)c3c(Nc4ccc(I)cc4F)n(C)c(=O)c(C)c32)c1 [Trametinib] (first compound max 2 µM, 7x7, partner max 1 µM)
Result string: 0.888

Query string: Return reported combination Emax. Input compound: O=C(c1cc(Cc2n[nH]c(=O)c3ccccc23)ccc1F)N1CCN(C(=O)C2CC2)CC1 [Olaparib] + CC1(C)CCC(CN2CCN(c3ccc(C(=O)NS(=O)(=O)c4ccc(NCC5CCOCC5)c([N+](=O)[O-])c4)c(Oc4cnc5[nH]ccc5c4)c3)CC2)=C(c2ccc(Cl)cc2)C1 [Venetoclax] (first compound max 10 µM, 7x7, partner max 1 µM)
Result string: 0.213

Query string: Return reported combination Emax. Input compound: Cc1cc2ncnn2cc1Nc1ncc2c(n1)n(C1CCOCC1)c(=O)n2C [AZD7648] + CN(C)CCCOc1ccc(-c2ccc3ncc4c(c3c2)n(C2CCOCC2)c(=O)n4C)cn1 [AZD0156] (first compound max 10 µM, 7x7, partner max 1 µM)
Result string: 0.302

Query string: Return reported combination Emax. Input compound: COc1cccc(OCCCN)c1-c1cc(Nc2cnc(C#N)cn2)n[nH]1 [Prexasertib] + Cc1cc2ncnn2cc1Nc1ncc2c(n1)n(C1CCOCC1)c(=O)n2C [AZD7648] (first compound max 1 µM, 7x7, partner max 10 µM)
Result string: 0.823

Query string: Return reported combination Emax. Input compound: Cc1cc2ncnn2cc1Nc1ncc2c(n1)n(C1CCOCC1)c(=O)n2C [AZD7648] + COc1cc([C@@H]2c3cc4c(cc3[C@@H](O[C@@H]3O[C@@H]5CO[C@@H](C)O[C@H]5[C@H](O)[C@H]3O)[C@H]3COC(=O)[C@H]23)OCO4)cc(OC)c1O [Etoposide] (first compound max 10 µM, 7x7, partner max 10 µM)
Result string: 0.642

Query string: Return reported combination Emax. Input compound: CN(CCO)CC[C@H](CSc1ccccc1)Nc1ccc(S(=O)(=O)NC(=O)c2ccc(N3CCC([C@@H](O)c4ccccc4-c4ccc(Cl)cc4)CC3)cc2)cc1S(=O)(=O)C(F)(F)F [AZD4320] + Cn1cnc2c(F)c(Nc3ccc(Br)cc3Cl)c(C(=O)NOCCO)cc21 [Selumetinib] (first compound max 1 µM, 7x7, partner max 3 µM)
Result string: 0.868

Query string: Return reported combination Emax. Input compound: NC1(C(=O)N[C@@H](CCO)c2ccc(Cl)cc2)CCN(c2ncnc3[nH]ccc23)CC1 [Capivasertib] + CCN(CCO)CCCOc1ccc2c(Nc3cc(CC(=O)Nc4cccc(F)c4)[nH]n3)ncnc2c1 [AZD2811] (first compound max 10 µM, 7x7, partner max 1 µM)
Result string: 0.556

Query string: Return reported combination Emax. Input compound: CN(C)CCCOc1ccc(-c2ccc3ncc4c(c3c2)n(C2CCOCC2)c(=O)n4C)cn1 [AZD0156] + C=CCn1c(=O)c2cnc(Nc3ccc(N4CCN(C)CC4)cc3)nc2n1-c1cccc(C(C)(C)O)n1 [AZD1775] (first compound max 1 µM, partner max 1 µM)
Result string: 0.391

Query string: Return reported combination Emax. Input compound: Cn1cnc2c(F)c(Nc3ccc(Br)cc3Cl)c(C(=O)NOCCO)cc21 [Selumetinib] + CCN(CCO)CCCOc1ccc2c(Nc3cc(CC(=O)Nc4cccc(F)c4)[nH]n3)ncnc2c1 [AZD2811] (first compound max 10 µM, 7x7, partner max 1 µM)
Result string: 0.815

Query string: Return reported combination Emax. Input compound: CC1(C)CCC(CN2CCN(c3ccc(C(=O)NS(=O)(=O)c4ccc(NCC5CCOCC5)c([N+](=O)[O-])c4)c(Oc4cnc5[nH]ccc5c4)c3)CC2)=C(c2ccc(Cl)cc2)C1 [Venetoclax] + C[C@@H](Nc1cc(F)cc(F)c1)c1cc(C(=O)N(C)C)cc2c(=O)cc(N3CCOCC3)oc12 [AZD8186] (first compound max 1 µM, 7x7, partner max 3 µM)
Result string: 0.398

Query string: Return reported combination Emax. Input compound: COc1cc2ncnc(Nc3ccc(F)c(Cl)c3)c2cc1OCCCN1CCOCC1 [Gefitinib] + CC(C)n1c(=O)n(C)c2cnc3cc(F)c(-c4ccc(OCCCN5CCCCC5)nc4)cc3c21 [AZD1390] (first compound max 10 µM, 7x7, partner max 0.3 µM)
Result string: 0.248
